All figures here come from ChEMBL document CHEMBL1156829.

assay: NOVARTIS: Cytotoxicity against human hepatocellular carcinoma cell line (Huh7); type: toxicity, cell-based, Huh-7; details: Huh7 cells (hepatocellular carcinoma cell line)
Provide the recorded CC50 for the entries that follow.

Exam item: Item `COc1ccc(CCN2CCC(NCc3cccc(N(C)C)c3)CC2)cc1` : provide CC50
Marked response: > 10 µM

Exam item: Item `Cc1cc(Nc2ccc([N+](=O)[O-])cc2O)nc2ccccc12` : provide CC50
Marked response: 28.1 µM

Exam item: Item CCCOC(=O)C1=C(C)NC2=C(C(=O)CC(c3ccc(OC)cc3)C2)C1c1ccc([N+](=O)[O-])cc1 (stereo unspecified) : provide CC50
Marked response: > 100 µM

Exam item: Item `CCOC(=O)c1c(NC(=O)CSc2nnc(CNC(=O)c3cccc(OC)c3)n2C2CCCCC2)sc2c1CCCC2` : provide CC50
Marked response: > 10 µM

Exam item: Item CC(c1nc2ccc(Cl)cc2c(=O)n1C)N1CCN(S(=O)(=O)c2cccc3ccccc23)CC1 (stereo unspecified) : provide CC50
Marked response: > 100 µM

Exam item: Item `Cc1cc(NC(=O)/C=C/c2ccccc2Cl)ccc1Br` : provide CC50
Marked response: > 10 µM

----------
assay: NOVARTIS: Cytotoxicity against human hepatocellular carcinoma cell line (Huh7); format: toxicity, cell-based, Huh-7; details: Huh7 cells (hepatocellular carcinoma cell line)
Where a name gives a salt, the structure may show the parent alone.
assay readout: CC50

Exam item: Item `O=C(Nc1ccc(CC2=NCCCN2)cc1)c1ccc(C(=O)Nc2ccc(CC3=NCCCN3)cc2)cc1` : provide CC50
Marked response: > 10 µM

Exam item: Item COc1ccc(C(=O)C(C)[n+]2cccc3ccc4cccnc4c32)cc1 (stereo unspecified) : provide CC50
Marked response: > 10 µM

Exam item: Item `CC(C)NC(=O)c1cn(Cc2ccccc2)cc(C(=O)NCCc2nc3ccccc3[nH]2)c1=O` : provide CC50
Marked response: > 100 µM

Exam item: Item `CC[C@H]1CN2CC[C@H]1C[C@H]2[C@H](O)c1ccnc2ccccc12` : provide CC50
Marked response: > 7.91 µM

Exam item: Item CCOc1ccc(C2c3[nH]c4ccccc4c3CCN2C(=O)c2cc3cc(Br)ccc3o2)cc1 (stereo unspecified) : provide CC50
Marked response: > 100 µM

Exam item: Item `COCOc1ccc(-c2nc(-c3ccncc3)cnc2N)cc1` : provide CC50
Marked response: > 10 µM

Exam item: Item CC(C)NC(=O)N1CCN(C(=O)C(Cc2c[nH]c3ccccc23)NC(=O)Nc2cccc(Cl)c2Cl)CC1C (stereo unspecified) : provide CC50
Marked response: 57.7 µM

Exam item: Item `C=CCSc1nc2sc3c(c2c(=O)n1-c1ccccc1)CCN(C)C3` : provide CC50
Marked response: > 100 µM

Exam item: Item `O=C1OC(c2ccccc2)=NC1=C(Cl)Cl` : provide CC50
Marked response: > 10 µM

Exam item: Item CC1(C)N=C(N)N=C(N)N1c1ccc(Cl)cc1 [CHLORCYCLOGUANIL HYDROCHLORIDE] : provide CC50
Marked response: 27.4 µM

Exam item: Item CCOC(=O)C1=C(CC)NC2=C(C(=O)CC(C)(C)C2)C1c1ccc(Cl)cc1Cl (stereo unspecified) : provide CC50
Marked response: > 100 µM

----------
Provide the recorded CC50 for the entries that follow.
assay: NOVARTIS: Cytotoxicity against human hepatocellular carcinoma cell line (Huh7); type: toxicity, cell-based, Huh-7; conditions: Huh7 cells (hepatocellular carcinoma cell line)

Exam item: Item CCC(C)OC(=O)C1=C(C)NC2=C(C(=O)CC(c3ccc(Cl)cc3)C2)C1c1ccc(Cl)cc1 (configuration not stated) : provide CC50
Marked response: > 100 µM

Exam item: Item `C=C[C@H]1CN2CC[C@H]1C[C@H]2[C@H](OC(=O)c1ccc(Cl)cc1)c1ccnc2ccccc12` : provide CC50
Marked response: > 10 µM

Exam item: Item CCN(CC)CCCC(C)Nc1ccnc2cc(Cl)ccc12 (configuration not stated) : provide CC50
Marked response: 12.4 µM

Exam item: Item O=C1CC(c2ccccc2)CC2=C1C(c1cccc(Cl)c1Cl)Nc1ccccc1N2 (configuration not stated) : provide CC50
Marked response: > 78.8 µM

Exam item: Item `O=C(Nc1ccc(-n2cnnn2)cc1)C1CCN(Cc2ccc(OC(F)F)cc2)CC1` : provide CC50
Marked response: 46.3 µM

Exam item: Item `O=C(Nc1ccc(Cl)c(Cl)c1)Nc1cc(C(=O)NCCCN2CCCCCC2)ccc1Cl` : provide CC50
Marked response: > 43 µM

Exam item: Item `COc1cc2c(-c3cc(Br)ccc3O)nc3c(c(Cc4ccccc4)nn3-c3ccccc3)c2cc1OC` : provide CC50
Marked response: > 100 µM
